- SYSTEM: pol eta core I147N I147N (Homo sapiens) (UniProt Q9Y253)
- Sequence: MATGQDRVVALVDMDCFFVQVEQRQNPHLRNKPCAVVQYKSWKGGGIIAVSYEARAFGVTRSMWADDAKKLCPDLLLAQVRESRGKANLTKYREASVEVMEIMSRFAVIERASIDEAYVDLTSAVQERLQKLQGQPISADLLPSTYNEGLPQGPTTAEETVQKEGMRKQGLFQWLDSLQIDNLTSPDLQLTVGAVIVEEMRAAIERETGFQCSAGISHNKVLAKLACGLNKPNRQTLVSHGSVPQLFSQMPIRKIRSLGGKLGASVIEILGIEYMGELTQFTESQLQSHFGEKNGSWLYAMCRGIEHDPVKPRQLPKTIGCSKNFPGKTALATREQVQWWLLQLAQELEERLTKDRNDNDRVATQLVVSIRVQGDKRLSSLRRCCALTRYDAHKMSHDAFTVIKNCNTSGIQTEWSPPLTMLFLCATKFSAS
- ASSAY_REMARKS: fluorescence polarization
- MEASUREMENT_SETUP: cis-syn cyclobutane thymine dimer at T7-T8 of the 25-mer template; 50 mM HEPES-KOH pH 7.5, 10 mM potassium acetate, 2 mM beta-mercaptoethanol, 0.1 mg/mL BSA, 5 mM MgCl2; 2 nM DNA; temperature not stated
MEASURED_ENDPOINT: pKd
Answer as the number alone; pKd is minus log10 of concentration in mol/L.

Quick one: pKd of CACCATCCACTAC / ATGTAGTTGTAGTGGATGGTGGTAC [13-FAM-mer/25-CTD-mer] ?
8.15

====

- SYSTEM: pol eta core I272T I272T (Homo sapiens)
- Sequence: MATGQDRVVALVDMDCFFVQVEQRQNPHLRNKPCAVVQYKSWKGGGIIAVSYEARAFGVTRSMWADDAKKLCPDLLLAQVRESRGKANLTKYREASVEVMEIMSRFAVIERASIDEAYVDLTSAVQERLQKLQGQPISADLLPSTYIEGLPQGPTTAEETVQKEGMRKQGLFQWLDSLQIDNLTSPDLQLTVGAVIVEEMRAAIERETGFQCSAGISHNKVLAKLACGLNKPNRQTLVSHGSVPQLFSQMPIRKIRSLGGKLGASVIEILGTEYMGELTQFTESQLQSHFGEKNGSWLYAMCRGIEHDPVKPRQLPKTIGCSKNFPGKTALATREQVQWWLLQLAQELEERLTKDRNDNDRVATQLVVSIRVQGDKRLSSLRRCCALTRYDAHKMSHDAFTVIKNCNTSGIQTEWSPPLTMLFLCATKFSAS
- ASSAY_REMARKS: fluorescence polarization
- MEASUREMENT_SETUP: 50 mM HEPES-KOH pH 7.5, 10 mM potassium acetate, 2 mM beta-mercaptoethanol, 0.1 mg/mL BSA, 5 mM MgCl2; 2 nM DNA; temperature not stated
MEASURED_ENDPOINT: Kd (nM)
The figure you give is taken to be in nM; do not add the unit.

Quick one: Kd of CACCATCCACTAC / ATGTAGTTGTAGTGGATGGTGGTAC [13-FAM-mer/25-TT-mer] ?
8.5

====

- SYSTEM: pol eta core S296F S296F (Homo sapiens) (UniProt Q9Y253)
- Sequence: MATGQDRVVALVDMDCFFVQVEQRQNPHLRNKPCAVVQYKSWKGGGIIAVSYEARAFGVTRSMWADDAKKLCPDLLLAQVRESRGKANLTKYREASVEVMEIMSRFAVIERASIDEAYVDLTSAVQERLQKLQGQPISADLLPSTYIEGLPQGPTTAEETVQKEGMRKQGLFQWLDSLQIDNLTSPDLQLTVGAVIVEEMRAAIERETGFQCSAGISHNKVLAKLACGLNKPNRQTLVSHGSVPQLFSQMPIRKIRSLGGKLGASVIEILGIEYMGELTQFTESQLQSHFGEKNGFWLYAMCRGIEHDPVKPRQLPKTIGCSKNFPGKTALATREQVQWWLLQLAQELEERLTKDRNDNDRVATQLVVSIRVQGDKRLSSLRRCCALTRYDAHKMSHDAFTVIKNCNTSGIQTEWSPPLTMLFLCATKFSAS
- ASSAY_REMARKS: fluorescence polarization
- MEASUREMENT_SETUP: 50 mM HEPES-KOH pH 7.5, 10 mM potassium acetate, 2 mM beta-mercaptoethanol, 0.1 mg/mL BSA, 5 mM MgCl2; 2 nM DNA; temperature not stated
MEASURED_ENDPOINT: pKd
Answer as the number alone; pKd is minus log10 of concentration in mol/L.

Quick one: pKd of CACCATCCACTAC / ATGTAGTTGTAGTGGATGGTGGTAC [13-FAM-mer/25-TT-mer] ?
8.00

====

- SYSTEM: pol eta core I272T I272T (Homo sapiens) (UniProt Q9Y253)
- Sequence: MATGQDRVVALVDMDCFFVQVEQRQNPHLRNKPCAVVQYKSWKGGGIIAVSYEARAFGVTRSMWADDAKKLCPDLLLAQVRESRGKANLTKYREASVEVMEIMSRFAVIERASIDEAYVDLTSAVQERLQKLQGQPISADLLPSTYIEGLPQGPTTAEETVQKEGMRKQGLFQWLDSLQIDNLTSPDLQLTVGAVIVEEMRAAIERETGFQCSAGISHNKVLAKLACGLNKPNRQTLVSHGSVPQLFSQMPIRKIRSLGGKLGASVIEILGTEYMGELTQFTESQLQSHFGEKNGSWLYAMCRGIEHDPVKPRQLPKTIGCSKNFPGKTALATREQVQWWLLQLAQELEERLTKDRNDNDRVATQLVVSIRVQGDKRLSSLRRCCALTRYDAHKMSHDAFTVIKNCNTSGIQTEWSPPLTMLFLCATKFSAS
- ASSAY_REMARKS: fluorescence polarization
- MEASUREMENT_SETUP: cis-syn cyclobutane thymine dimer at T7-T8 of the 25-mer template; 50 mM HEPES-KOH pH 7.5, 10 mM potassium acetate, 2 mM beta-mercaptoethanol, 0.1 mg/mL BSA, 5 mM MgCl2; 2 nM DNA; temperature not stated
MEASURED_ENDPOINT: pKd
Answer as the number alone; pKd is minus log10 of concentration in mol/L.

Quick one: pKd of CACCATCCACTAC / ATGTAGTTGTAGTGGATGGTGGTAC [13-FAM-mer/25-CTD-mer] ?
7.96

====

- SYSTEM: pol eta core G209V G209V (Homo sapiens)
- Sequence: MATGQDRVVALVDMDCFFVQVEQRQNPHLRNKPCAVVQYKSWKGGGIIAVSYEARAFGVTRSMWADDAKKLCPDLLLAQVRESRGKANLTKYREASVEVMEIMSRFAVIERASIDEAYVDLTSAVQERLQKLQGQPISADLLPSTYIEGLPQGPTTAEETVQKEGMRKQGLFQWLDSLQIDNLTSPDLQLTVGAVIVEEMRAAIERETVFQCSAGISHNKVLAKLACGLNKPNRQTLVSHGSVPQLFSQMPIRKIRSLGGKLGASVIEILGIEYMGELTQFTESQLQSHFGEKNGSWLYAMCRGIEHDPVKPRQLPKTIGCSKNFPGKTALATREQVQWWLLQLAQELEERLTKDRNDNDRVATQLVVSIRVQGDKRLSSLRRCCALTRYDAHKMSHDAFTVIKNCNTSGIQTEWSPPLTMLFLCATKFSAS
- ASSAY_REMARKS: fluorescence polarization
- MEASUREMENT_SETUP: cis-syn cyclobutane thymine dimer at T7-T8 of the 25-mer template; 50 mM HEPES-KOH pH 7.5, 10 mM potassium acetate, 2 mM beta-mercaptoethanol, 0.1 mg/mL BSA, 5 mM MgCl2; 2 nM DNA; temperature not stated
MEASURED_ENDPOINT: Kd (nM)
The figure you give is taken to be in nM; do not add the unit.

pol eta core G209V G209V (Homo sapiens) / Kd / CACCATCCACTAC / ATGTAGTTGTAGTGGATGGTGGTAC [13-FAM-mer/25-CTD-mer] : value?
11

====

- SYSTEM: pol eta core R167Q R167Q (Homo sapiens) (UniProt Q9Y253)
- Sequence: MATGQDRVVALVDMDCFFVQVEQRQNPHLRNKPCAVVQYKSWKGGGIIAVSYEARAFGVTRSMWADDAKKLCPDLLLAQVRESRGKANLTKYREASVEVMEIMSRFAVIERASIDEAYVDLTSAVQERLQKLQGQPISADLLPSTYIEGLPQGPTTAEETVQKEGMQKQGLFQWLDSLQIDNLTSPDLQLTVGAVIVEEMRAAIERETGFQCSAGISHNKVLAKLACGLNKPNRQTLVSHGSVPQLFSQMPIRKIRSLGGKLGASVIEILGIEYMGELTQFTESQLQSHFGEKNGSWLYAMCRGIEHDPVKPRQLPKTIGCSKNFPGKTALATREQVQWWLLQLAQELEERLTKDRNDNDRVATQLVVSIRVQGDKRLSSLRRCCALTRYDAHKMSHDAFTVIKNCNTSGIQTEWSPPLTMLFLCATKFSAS
- ASSAY_REMARKS: fluorescence polarization
- MEASUREMENT_SETUP: cis-syn cyclobutane thymine dimer at T7-T8 of the 25-mer template; 50 mM HEPES-KOH pH 7.5, 10 mM potassium acetate, 2 mM beta-mercaptoethanol, 0.1 mg/mL BSA, 5 mM MgCl2; 2 nM DNA; temperature not stated
MEASURED_ENDPOINT: pKd
Answer as the number alone; pKd is minus log10 of concentration in mol/L.

Quick one: pKd of CACCATCCACTAC / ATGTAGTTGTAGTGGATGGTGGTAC [13-FAM-mer/25-CTD-mer] ?
7.74
